B1: HDV Ribozyme (parent)
chain: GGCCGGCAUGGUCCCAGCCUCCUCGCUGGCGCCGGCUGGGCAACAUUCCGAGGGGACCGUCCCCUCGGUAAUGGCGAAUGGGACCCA

variants of: B1; experiment: self-cleavage, relative activity (ratio to wild type); higher = more cleavage; co-transcriptional
QUANTITY: self-cleavage

- GGCCGGCAUGGUCCCAGCCUCCUCGCUGGCGCCGGCUGGGCAACAUGCCGAGGGGACCGUCCCCUCGGUAAUCGCGAAUGGGACCCA [U47G G73C]: 0.534
- GGCCGGCAUGGUCCCAGCCUCCUCGCUGGCGCAGGCCGGGCAACAUUCCGAGGGGACCGUCCCCUCGGUAAUGGCGAAUGGGACCCA [C33A U37C]: 0.469
- GGCCGGCAUGGUCCCAGCCUCCUCGCUGGCGCCGGCUGGGCAACAUUAAGAGGGGACCGUCCCCUCGGUAAUGGCGAAUGGGACCCA [C48A C49A]: 1.16
- GGCCGGCAUGGUCCCAGCCUCCUCGCUGGCGCCGGCUGGGCAACAUUCCGACGGGACCGUCCCCUCGGUAAUGGCGAAUGGGAACCA [G52C C84A]: 0.791
- GGCCGGCGUGGUCCCAGCCUCCUCGCUGGCGCCGGUUGGGCAACAUUCCGAGGGGACCGUCCCCUCGGUAAUGGCGAAUGGGACCCA [A8G C36U]: 0.727
- GGCCGGCAUGGUCCCAGCCUCCUCGCUGGCGCCGGCUGGGCAACAUUCCGAGGGGACCGUCCCCUCCGUAAUGGAGAAUGGGACCCA [G67C C75A]: 0.0652
- GGCCGGCAUGGUCCCAGCCUCCUCGCUGGCGUCGGCUGGGCAACAUUCCGAGGGGACCGUCCGCUCGGUAAUGGCGAAUGGGACCCA [C32U C63G]: 0.721
- GGCCGGCAUGGUCCCAGCCUCCUCGCUGCCGCCGGCUGGGCAACAUUCCGAGGGGACCGUCCCGUCGGUAAUGGCGAAUGGGACCCA [G29C C64G]: 0.095
- GGCCGUAAUGGUCCCAGCCUCCUCGCUGGCGCCGGCUGGGCAACAUUCCGAGGGGACCGUCCCCUCGGUAAUGGCGAAUGGGACCCA [G6U C7A]: 0.227
- GGCCGGCAUGGUCCCAGCCUCCUCGCUGGCGGCGGCUGGGCAACAUUCCGAGGGGACCGUCCCCUCGGUAAUGGCGAAUGGCACCCA [C32G G82C]: 0.0652
- GGCCGGCAUGGUCCCAGCCUCCUCGCUGGCGCCGGCUGGGCAACAGUUCGAGGGGACCGUCCCCUCGGUAAUGGCGAAUGGGACCCA [U46G C48U]: 0.751
